Biological target: T1, human CCR8 (human, UniProt P51685 1-355)
T1 construct: also called hCCR8; hCCR8_P51685
Assay: flow cytometry, hCCR8 transfected CHOK1 cells
Outcome Measure: % positive cells

binder="anti-CCR8 mAb 2-9 (antibody, V domains shown) VH: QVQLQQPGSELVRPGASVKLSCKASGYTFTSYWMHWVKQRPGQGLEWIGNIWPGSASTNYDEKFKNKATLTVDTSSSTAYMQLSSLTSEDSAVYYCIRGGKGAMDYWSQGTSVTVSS VL: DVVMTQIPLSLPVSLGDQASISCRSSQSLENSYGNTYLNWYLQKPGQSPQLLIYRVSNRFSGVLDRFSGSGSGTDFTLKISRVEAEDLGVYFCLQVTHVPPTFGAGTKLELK" experimental_value=81.6%
